Assay Remarks: chemical genetic growth profiling, strain panel (AID 1159580);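 also: tested at 20 µM; growth read once vehicle control cultures reached saturation at 30 °C; 1 = growth at the plate median or of vehicle wells; lower values mean less growth of the strain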
Condition Summary: S. cerevisiae deletion strains, growth OD, locus YHR142W, strain chs7
Hit rate of the full screen: of about 5,500 compounds, about 2,000 (36%) were called active. Another 18% or so got no clear call; they are omitted. Rule as the data show it: active = normalized growth mostly below about 0.91 (no sharp cut-off); inconclusive = no clear call, values can overlap the other calls; inactive = mostly above about 0.92. The list shows a part of the results.
Choose one outcome from this list and give only that: yes (1) for active, no (0) for inactive

Examples from the recorded data:
Compound	Label Value
CCC(=O)O[C@H]1CCC2C3CCC4=CC(=O)CC[C@]4(C)C3CC[C@@]21C (stereo partly specified)	yes (1)
CC(=O)NC1SCCC1=O (stereo unspecified)	no (0)
CCOC(=O)c1c(C)cc(O)c(C=O)c1O	yes (1)
CC(=O)N[C@@H](CC(C)C)C(=O)O	no (0)
CC(=O)OC(C)(C)[C@@H]1Cc2cc3ccc(=O)oc3cc2O1	no (0)
CO[C@H]1[C@H](O)[C@H](O[C@H]2CC[C@]3(C)C4CC[C@]5(C)C(C6=CC(=O)OC6)CC[C@]5(O)C4CC[C@@H]3C2)O[C@@H](C)[C@@H]1O (stereo partly specified)	no (0)
CCOC(=O)c1c(C)c(Cl)c(O)c(Cl)c1O	yes (1)
CC(=O)[C@H]1CCC2C3CCC4=CC(=O)CC[C@]4(C)C3CC[C@@]21C (stereo partly specified)	yes (1)

Problem: Which outcome was entered for the compound Cc1cc(O)c(C)c(O)c1C(=O)O in this test?
Result: no (0)

Problem: Check C[C@]12CCC(=O)C=C1CCC1C2CC[C@@]2(C)C1CC[C@@H]2O (stereo partly specified) too.
Result: no (0)

Problem: Check COP(=O)(OC)OC=C(Cl)Cl too.
Result: no (0)

----------
Assay Remarks: chemical genetic growth profiling, strain panel (AID 1159580);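 also: tested at 20 µM; growth read once vehicle control cultures reached saturation at 30 °C; 1 = growth at the plate median or of vehicle wells; lower values mean less growth of the strain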
Condition Summary: S. cerevisiae deletion strains, growth OD, locus YLR039C, strain RIC1, hits give low values
Hit rate of the full screen: of about 5,500 compounds, about 2,000 (36%) were called active. About 18% were inconclusive and are not listed. The list shows a part of the results.
# if measured normalized growth < 1: y  # else: n

Examples from the recorded data:
>>> print(df.to_string())
                                   compound  label_value
0  CC1(C)C(C=C(Cl)Cl)C1C(=O)OC(C#N)c1cccc(Oc2ccccc2)c1 (configuration not stated)            y
1                       N#CCOc1ccc(Cl)cc1Cl            n

Now take the following compound into account.
Problem: Given CC(C(=O)O)c1cccc(Oc2ccccc2)c1 (configuration not stated) , is recorded normalized growth strictly lower than 1?
Result: y

----------
Consider the following molecules; for each one, report its normalized growth.
Assay Remarks: chemical genetic growth profiling, strain panel (AID 1159580);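 also: tested at 20 µM; growth read once vehicle control cultures reached saturation at 30 °C; 1 = growth at the plate median or of vehicle wells; lower values mean less growth of the strain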
Condition Summary: S. cerevisiae deletion strains, growth OD, locus YPL106C, strain sse1, hits give low values
The campaign covered roughly 5,500 compounds. About 2,000 (36%) were called active. Not shown: some 18% with an inconclusive outcome. Some of the results follow.

Solved cases below.
Molecule	Readout Type	Data Value
NC(=O)c1ccc[n+]([C@@H]2O[C@H](COP(=O)([O-])OP(=O)(O)OC[C@H]3O[C@@H](n4cnc5c(N)ncnc54)[C@H](O)[C@@H]3O)[C@@H](O)[C@H]2O)c1	normalized growth	1.04 (inactive)
COCCc1ccc(OCC(O)CNC(C)C)cc1 (configuration not stated)	normalized growth	0.971 (inactive)
NC(=O)C(c1ccccc1)(c1ccccc1)C1CCN(CCc2ccc3c(c2)CCO3)C1 (configuration not stated)	normalized growth	1.05 (inactive)

For every listed record, write down its normalized growth.
1. CC(=O)OC(C)(C)[C@@H]1Cc2cc3ccc(=O)oc3cc2O1
2. Oc1cc(Cl)ccc1Oc1ccc(Cl)cc1Cl
3. CCOC(=O)C(=O)C1(C(=O)OCC)Oc2cc(OC)cc(OC)c2C(=O)C1c1ccccc1 (configuration not stated)
4. CC(C)c1c(C(=O)c2ccccc2)c(-c2ccccc2)c(-c2ccc(F)cc2)n1CC[C@@H](O)C[C@@H](O)CC(=O)O
5. O=C(O)c1cc2ccccc2c(Cc2c(O)c(C(=O)O)cc3ccccc23)c1O
6. CN1CCCN=C1COC(=O)C(O)(c1ccccc1)C1CCCCC1 (configuration not stated)
7. CN(C)C(=S)SSC(=S)N(C)C
8. COc1cc2c(cc1OC)[C@@H]1C(=O)c3ccc(OC)c(CC=C(C)C)c3O[C@@H]1CO2

Result:
0.946 (inactive)
0.103 (active)
0.943 (inactive)
1.11 (inactive)
0.964 (inactive)
0.989 (inactive)
0.1 (active)
1.1 (inactive)

For every listed record, write down its normalized growth.
1. O=C(O)c1c2ccccc2cc2ccccc12
2. CC(=O)N[C@@H](CC(C)C)C(=O)O
3. COC1=CC(=O)C[C@@H](C)[C@]12Oc1c(Cl)c(OC)cc(OC)c1C2=O
4. CC1CC2C3CCC4=CC(=O)C=C[C@]4(C)[C@@]3(F)[C@@H](O)C[C@]2(C)[C@@]1(O)C(=O)CO (some centres not stated)
5. COc1ccc2c(c1OC)C(=O)O[C@@H]2[C@H]1c2cc3c(cc2CCN1C)OCO3

Result:
1: 0.947 (inactive); 2: 0.994 (inactive); 3: 0.964 (inactive); 4: 0.982 (inactive); 5: 0.976 (inactive)

Problem: normalized growth for COc1cc2c(cc1OC)[C@@H]1C(=O)c3ccc4c(c3O[C@@H]1CO2)C=CC(C)(C)O4 ?
Result: 1.06 (inactive)
